# Test protocol: AUC in APPswe/PS1dE9 double mutant-transgenic mouse at 3 mg/kg, iv administered as single dose by LC-MS/MS analysis
# Assay type: ADME, organism-based
# Experimental parameters: in vivo
Readout: AUC (µg·h/mL)

1) O=C1N/C(=N/c2ccccc2Cl)S/C1=C1\C(=O)Nc2ccc(F)cc21 ... 2.12

====

# Test protocol: Plasma concentration in APPswe/PS1dE9 double mutant-transgenic mouse at 30 mg/kg, ip administered as single dose measured after 24 hrs by LC-MS/MS analysis
# Type: ADME, organism-based
Readout: concentration at 24 h (ng/mL)

1) O=C1N/C(=N/c2ccccc2Cl)S/C1=C1\C(=O)Nc2ccc(F)cc21 ... 41
